Measured XBP1-RLuc splicing reporter activation values are reported for all entries that follow.
# System: HEK293T-Rex XBP1-RLuc
# assayOverview: XBP1-RLuc splicing reporter activation, triplicate, relative to 500 nM thapsigargin (% of thapsigargin); higher = stronger IRE1/XBP1s reporter activation
# measurementContext: 6.8 µM; 18 h; screen: confirmation

| molecule | XBP1-RLuc splicing reporter activation |
| --- | --- |
| Cc1ccc(NC(=O)/C=C/c2ccco2)nc1 | 5.22 |
| COc1ccc(/C=C/c2ccc3cccc(OC(C)=O)c3n2)cc1OC(C)=O | 6.25 |
| Cc1nc(-c2ccc(C(=O)Nc3ccc(O)cc3)cc2)cs1 | 19.3 |
| Cc1ccc(O)c(NC(=O)CSc2n[nH]c(C)c2[N+](=O)[O-])c1 | 16.6 |
| Cc1nc(-c2coc3c(O)c(O)ccc3c2=O)cs1 | 7.82 |
| CC(C)c1ccc(/C=N\NC(=O)c2ccccc2)cc1 | 6.81 |
| COc1ccc(-c2nn(-c3ccccc3)cc2/C=C/C(=O)O)cc1[N+](=O)[O-] | 8.64 |
| CCOc1ccc(NC(=O)c2cccc(F)c2)c([N+](=O)[O-])c1 | 1.77 |
| CC(C)CC(c1nnnn1C1CCCC1)N1CCN(C(=O)c2ccco2)CC1 (stereo unspecified) | 10.6 |
| COc1ccccc1OCC(=O)Nc1cc(C)ccc1O | 19.6 |
| COc1ccc(C2=Nn3c(nnc3-c3ccc(OC)cc3)SC2)cc1 | 10.4 |
